# Tested on: ACHN
# assay procedure: minimum viability across doses, drug alone, relative to DMSO (fraction); higher = less growth inhibition
# run conditions: treatment: drug alone; 5 days
// reported minimum viability across doses for each item listed
experimental readout: minimum viability across doses

| molecule | numeric result |
| --- | --- |
| COc1cc(Nc2c(C#N)cnc3cc(OCCCN4CCN(C)CC4)c(OC)cc23)c(Cl)cc1Cl [Bosutinib (SKI-606)] | 0.0885 |
| CN(c1ncccc1CNc1nc(Nc2ccc3c(c2)CC(=O)N3)ncc1C(F)(F)F)S(C)(=O)=O.O=S(=O)(O)c1ccccc1 | 0.0138 |
| CCn1cc(-c2ccnc3[nH]c(-c4cccc(CN(C)C)c4)cc23)c(-c2ccc(NC(=O)N(C)C)cc2)n1 | 0.0251 |
| Cn1c(=O)n(-c2ccc(C(C)(C)C#N)cc2)c2c3cc(-c4cnc5ccccc5c4)ccc3ncc21 | 0.0714 |
| OCCn1cc(-c2cnc3nnn(Cc4ccc5ncccc5c4)c3n2)cn1 | 0.542 |
| NC(=O)Nc1cc(-c2cccc(F)c2)sc1C(=O)N[C@H]1CCCNC1 | 0.0318 |
| CC(O)C(=O)O.CC(O)C(=O)O.CN1CCN(c2ccc3nc(-c4c(N)c5c(F)cccc5[nH]c4=O)[nH]c3c2)CC1 | 0.107 |
| CCOc1ccn(-c2ccc(F)cc2)c(=O)c1C(=O)Nc1ccc(Oc2ccnc(N)c2Cl)c(F)c1 | 0.443 |

// data source = the supplement of paper PMC8149375
